- test-method-notes: P-glycoprotein substrates identified in KB-8-5-11 adenocarcinoma cell line, qHTS therapeutic library screen (AID 1346987); also: nearly all actives have a fitted effect of over 65% in size
- study-conditions: KB-8-5-11 (P-gp overexpressing) viability, CellTiter-Glo, 72 h; series mostly up to 44.5 µM
Inconclusive results are not listed. Activity calls are given as the source filed them. Calls follow the shape of the dose curve; as a rule, active = well fitted inhibition curve with a large enough effect; inconclusive = small, poorly fitted or top-dose-only effect; inactive = flat fitted curve, though single readings scatter.
The categories you may choose from are active, inactive

// known answers, use as guide
compound | category
C=C1/C(=C/C=C2\CCC[C@]3(C)[C@@H]([C@H](C)/C=C/[C@H](O)C4CC4)CC[C@@H]23)C[C@@H](O)C[C@@H]1O | inactive
CO[C@@H]1CC(OC2CCC3(C)C(CCC45CCC(C6=CC(=O)OC6)C(C)(CCC43)C5=O)C2)O[C@H](C)[C@@H]1O[C@@H]1O[C@H](CO[C@@H]2O[C@H](CO)[C@@H](O)[C@H](O)[C@H]2O)[C@@H](O)[C@H](O)[C@H]1O (stereo partly specified) | active
CC(C)(C)c1ccc(C(=O)Nc2cn3cc(-n4ccnc4)ccc3n2)cc1 | inactive

Qu. Name the outcome recorded for "O=C(NC[C@H]1CN(c2ccc(N3CCOCC3=O)cc2)C(=O)O1)c1ccc(Cl)s1" in the assay.
Ans. inactive

Qu. Name the outcome recorded for COC(=O)C[C@](O)(CCCC(C)(C)O)C(=O)O[C@@H]1C(OC)=CC23CCCN2CCc2cc4c(cc2[C@H]13)OCO4 (stereo partly specified) in the assay.
Ans. active

Qu. Name the outcome recorded for COC(=O)C1=COC(O[C@@H]2O[C@H](CO[C@@H]3O[C@H](COC(=O)/C=C\c4ccc(O)cc4)[C@@H](O)[C@H](O)[C@H]3O)[C@@H](O)[C@H](O)[C@H]2O)C2C(CO)=CCC12 (stereo partly specified) in the assay.
Ans. inactive

###

- Tested on: C33A
- test-method-notes: Primary qHTS to identify gynecologic anti-cancer compounds using libraries of approved drugs and bioactive compounds (AID 1345084); also: nearly all actives have a fitted effect of over 55% in size
- study-conditions: Gynecologic cancer cell panel viability, ATPlite luminescence, 48 h; series mostly up to 57.5 µM
Results filed as inconclusive are left out. The source made the active and inactive calls. Calls follow the shape of the dose curve; as a rule, active = well fitted cell-killing curve with a large enough effect; inconclusive = small, poorly fitted or top-dose-only effect, or effect the other way; inactive = flat fitted curve, though single readings scatter.

smiles-data | outcome
O=C(Nc1ncc([N+](=O)[O-])s1)c1ccccc1O | inactive
CCc1ccccc1OC[C@@H](O)CN[C@H]1CCCc2ccccc21 | inactive
Cc1ccnn1-c1ccc(C(=O)N2CCN(S(=O)(=O)c3ccc(Cl)c(C(F)(F)F)c3)CC2)cc1 | inactive

###

max response values for the molecules below.
- Tested on: NIH3T3
- test-method-notes: Cytotoxic Profiling of Annotated Libraries Using Quantitative High-Throughput Screening (AID 1296008); also: % is scaled to controls: 0 for no effect and ±100 for the full control effect; nearly all actives have a fitted effect of over 60% in size
- study-conditions: Five cell lines viability, CellTiter-Glo ATP luminescence, 48-72 h; hits give low values
Inconclusive results are not listed.
All answers are understood in %, so give the number only.

These recorded examples may help you get a feel for the data.
molecule | unit-symbol | experimental-result
COC(=O)c1ccnc(-c2cc(C(=O)Nc3ccc(C4(N)CC4)cc3)ccn2)c1 | % | -5.19
CN(C)CC#CCCC(=O)C(O)(c1ccccc1)C1CCC1 (stereo not given) | % | -1.12
c1cc(NCCc2c[nH]c3ccccc23)cc(Nc2ccncc2)c1 | % | -50.3
O=C(c1cc(Cc2n[nH]c(=O)c3ccccc23)ccc1F)N1CCCNCC1 | % | 0.0332
CC(C)(C)c1ccc(C(=O)Nc2cn3cc(-n4ccnc4)ccc3n2)cc1 | % | -1.43
Cc1cc(C)c(-n2cc(C)c3c(Cl)nc(C)nc32)c(C)c1 | % | -6

Tested on NIH3T3: "COc1ccc(CNCc2cccc3ccccc23)cc1" . Observed max response: -4.32

Tested on NIH3T3: "CN1CC[C@@H](c2c(O)cc(O)c3c(=O)cc(-c4ccc(C(F)(F)F)cc4Cl)oc23)[C@@H]1CO" . Observed max response: -4.65

Tested on NIH3T3: "COc1cc(C(=O)NCC2(N(C)C)CCCC2)cc(OC)c1OCc1ccccc1" . Observed max response: -9.79

Tested on NIH3T3: CC(=O)OC1C(OC(=O)c2ccccc2)C2C(=C(C)CCC2(C)C)C23CCC(C)(C2)C(=O)CC13 (stereo not given) . Observed max response: -18.4

###

- Test system: Es-2
- test-method-notes: Primary qHTS to identify gynecologic anti-cancer compounds using libraries of approved drugs and bioactive compounds (AID 1345084); also: nearly all actives have a fitted effect of over 55% in size
- study-conditions: Gynecologic cancer cell panel viability, ATPlite luminescence, 48 h; series mostly up to 57.5 µM
Records with an inconclusive call do not appear. Calls of active or inactive are those of the source. Calls come from the whole dose curve; as a rule, active = well fitted cell-killing curve with a large enough effect; inconclusive = small, poorly fitted or top-dose-only effect, or effect the other way; inactive = flat fitted curve, though single readings scatter.
The categories you may choose from are True (active), False (inactive)

molecule | category
CCC(C)C(=O)O[C@H]1[C@@H](OC(=O)c2ccoc2)C[C@](C)(O)[C@]23OC(C)(C)[C@H](C[C@H](OC(=O)c4ccoc4)[C@]12COC(C)=O)[C@H]3OC(C)=O (stereo partly drawn) | False
CN1CCN(S(=O)(=O)c2ccc(-c3cnc(N)c(C(=O)Nc4cccnc4)n3)cc2)CC1 | False
CC(C)(C)[C@H](NC(=O)c1ccc(N)c(Cl)c1)C(=O)N1CCC[C@H]1C(=O)N[C@H](C#N)CC(=O)O | False

Qu. Name the outcome recorded for "COc1ccc(N(C(=O)Nc2c(C)cccc2C)c2cc(Nc3ccc(N4CCN(C)CC4)cc3)ncn2)c(OC)c1" in the assay.
Ans. False

Qu. Name the outcome recorded for C=C1C(=O)O[C@@H]2[C@H]1CC[C@H](C)[C@]1(CCC(=O)O1)C2(C)O (stereo partly drawn) in the assay.
Ans. False

Qu. Name the outcome recorded for "CN1CCN(Cc2ccc(NC(=O)Cc3ccc(Oc4cc(NC(=O)C5CC5)ncn4)cc3)cc2C(F)(F)F)CC1" in the assay.
Ans. True

Qu. Name the outcome recorded for "O=C(NCCN1CCN(c2cccc3ccc(O)cc23)CC1)c1ccc(F)cc1" in the assay.
Ans. False

Qu. Name the outcome recorded for "Cn1ccc(NC(=O)c2cc(Oc3ccc(C(=O)N4CCC4)c(F)c3)c3c(c2)OC(C)(C)C3)n1" in the assay.
Ans. False

###

- test-method-notes: Primary redox qHTS assay for identification of artifact compounds. (AID 1845223);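 also: 0% = DMSO and 100% = reference compound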
- study-conditions: Amplex Red/HRP redox cycling with DTT, fluorescence; series mostly up to 53.8 µM
Records with an inconclusive call do not appear. Calls of active or inactive are those of the source. Calls follow the shape of the dose curve; as a rule, active = well fitted activation curve with a large enough effect; inconclusive = small, poorly fitted or top-dose-only effect; inactive = flat fitted curve, though single readings scatter. Where a SMILES comes first, the peptide text is derived from it. [ ]: non-standard residue; d: D form. Hyp = O=C(O)[CH]1C[CH](O)CN1; Phe(ol) = N[CH](CO)Cc1ccccc1; Iva = CC[C](C)(N)C(=O)O; Aib = CC(C)(N)C(=O)O
property-name: redox activity (% of DA3003)

Looking up CCC(C)(NC(=O)C(CCC(N)=O)NC(=O)C1CC(O)CN1C(=O)C(C)(C)NC(=O)C(C)(C)NC(=O)C(CC(C)C)NC(=O)CNC(=O)C(NC(=O)C(C)(C)NC(=O)C(C)(C)NC(=O)C(C)(C)NC(=O)C(Cc1ccccc1)NC(C)=O)C(C)C)C(=O)N1CC(O)CC1C(=O)NC(C)(C)C(=O)NC(CO)Cc1ccccc1 (configuration not stated) (Ac-F[Aib][Aib][Aib]VGL[Aib][Aib][Hyp]Q[Iva][Hyp][Aib][Phe(ol)]; configuration not given here) , I found its redox activity (% of DA3003) recorded as 15.7% [at 11.5 µM] (inactive)

###

- Test system: C33A
- test-method-notes: Primary qHTS to identify gynecologic anti-cancer compounds using libraries of approved drugs and bioactive compounds (AID 1345084); also: nearly all actives have a fitted effect of over 55% in size
- study-conditions: Gynecologic cancer cell panel viability, ATPlite luminescence, 48 h; series mostly up to 57.5 µM
Results filed as inconclusive are left out. The source made the active and inactive calls. Calls come from the whole dose curve; as a rule, active = well fitted cell-killing curve with a large enough effect; inconclusive = small, poorly fitted or top-dose-only effect, or effect the other way; inactive = flat fitted curve, though single readings scatter.
The categories you may choose from are active, inactive

// known answers, use as guide
smiles-data | category
O=C(NCCCNc1nc(Nc2cccc(CN3CCOCC3)c2)ncc1C1CC1)C1CCC1 | inactive
CC(F)(F)CN1CCOc2c(nn(-c3ccccc3Cl)c2-c2ccc(Cl)cc2)C1=O | inactive
O=C(NC[C@H]1CN(c2ccc(N3CCOCC3=O)cc2)C(=O)O1)c1ccc(Cl)s1 | inactive
CNc1cc2[nH]c(=O)n(-c3ccc(NC(=O)NS(=O)(=O)c4ccc(Cl)s4)cc3)c(=O)c2cc1F | inactive

Qu. Name the outcome recorded for "COc1ccc([C@H]2OC[C@H]3O[C@@H](O[C@H]4[C@@H]2NC[C@@H]4O)[C@H](O)[C@H]3O)cc1" in the assay.
Ans. active

Qu. Name the outcome recorded for "O=S1(=O)CCN(Cc2cc(NCC3CCOCC3)c3[nH]c(-c4ccccc4)cc3c2)CC1" in the assay.
Ans. inactive

Qu. Name the outcome recorded for "CCCOc1ccc(CCc2nc3cc(-c4c(C)noc4C)ccc3n2CCN2CCOCC2)cc1" in the assay.
Ans. inactive

Qu. Name the outcome recorded for "COc1ccc(S(=O)(=O)Nc2c(C)cc(C)cc2C)cc1" in the assay.
Ans. inactive

Qu. Name the outcome recorded for "COc1cc(O)cc(/C=C/c2cccc(O)c2)c1" in the assay.
Ans. inactive

Qu. Name the outcome recorded for "Cc1cc(N2CCOCC2)ccc1Nc1nc(NC2CCCCC2)c2[nH]cnc2n1" in the assay.
Ans. inactive
